Subject of test: PDE4
Assay notes: Inhibition of PDE isoenzymes: PDE4 (cAMP-specific), cytosol of human polymorphonuclear leukocytes, cAMP as substrate
Assay type: biochemical
Measurement conditions: cytosol of human PMNL; 0.5 μM cAMP; motapizone (1 μM) to suppress PDE3; pH 7.4, 37° C., 15 min
Parameter: -log IC50 PDE4 (mol/l)

Molecule: COc1ccc(C2=NN(C(C)CCC(=O)Nc3ccc(C4=NNC(=O)CC4C)cc3)C(=O)[C@H]3CC=CC[C@@H]23)cc1OC (relative stereo)
-log IC50 PDE4 [mol/l]: 8.17
--
Molecule: COc1ccc(C2=NN(c3ccc(C(=O)Nc4ccc(-c5ccc(=O)[nH]n5)cc4)cc3)C(=O)[C@H]3CC=CC[C@@H]23)cc1OC (relative stereo)
-log IC50 PDE4 [mol/l]: 9.08
--
Molecule: COc1ccc(C2=NN(c3ccc(C4=NNC(=O)CC4C)cc3)C(=O)[C@H]3CC=CC[C@@H]23)cc1OC (relative stereo)
-log IC50 PDE4 [mol/l]: 8.36
--
Molecule: CCOc1ccc(C2=NN(c3ccc(C4=NNC(=O)CC4C)cc3)C(=O)[C@H]3CC=CC[C@@H]23)cc1OCC (relative stereo)
-log IC50 PDE4 [mol/l]: 8.05
--
Molecule: COc1ccc(C2=NN(CCCCOc3ccc(C4=NNC(=O)CC4C)cc3)C(=O)[C@H]3CC=CC[C@@H]23)cc1Cl (relative stereo)
-log IC50 PDE4 [mol/l]: 7.77
--
Molecule: COc1ccc(C2=NN(CC(=O)Nc3ccc(C4=NNC(=O)CC4C)cc3)C(=O)[C@H]3CC=CC[C@@H]23)cc1OC (relative stereo)
-log IC50 PDE4 [mol/l]: 8.40
